procedure_text: Metabolic stability in human liver microsomes
Format: in vitro ADME
study_conditions: both sexes, human, liver microsomes, pH 7.4, Table S6, 1st batch; 15 min; 2 µM
property_label: remaining at […], 2 µM

molecule=O=C(O)Cc1ccccc1Nc1c(Cl)cccc1Cl result=15%
molecule="CC1CN(c2ccc(NC(=O)C34CCCC(c5ccc(OC(F)(F)F)cc5)(C3)C4)cn2)CC(C)O1 (centres unmarked)" result=98%

====

procedure_text: physchem
study_conditions: pH 7.4, LogD, pH 7.4
property_label: logD at 1 h

molecule="CC1CN(c2ccc(NC(=O)C34COCC(c5ccc(OC(F)(F)F)cc5)(C3)C4)cn2)CC(C)O1 (stereo not shown)" property_label="logD at 1 h" result="≥ 4.5"
molecule=COC(=O)Nc1nc2ccc(C(=O)c3ccccc3)cc2[nH]1 property_label="logD at 1 h" result=3.06
molecule="CC1CN(c2ccc(NC(=O)C34CCCC(c5ccc(OC(F)(F)F)cc5)(C3)C4)cn2)CC(C)O1 (stereo not shown)" property_label="logD at 1 h" result="≥ 4.5"
molecule=Cc1c(C(=O)Nc2ccc(N3C[C@@H](C)O[C@@H](C)C3)nc2)cccc1-c1ccc(OC(F)(F)F)cc1 property_label="logD at 1 h" result="≥ 4.5"

====

procedure_text: in vitro
study_conditions: human, Caco-2, pH 7.4, Papp (AB), replicate 2, 10 µM, 90 min, no verapamil
property_label: Papp A→B (×10⁻⁶ cm/s)

compound="CC(C(=O)O)c1cccc(C(=O)c2ccccc2)c1 (stereo not shown) [Ketoprofen]" property_label="Papp A→B" quantitative_result=23.8

====

procedure_text: in vitro
study_conditions: human, Caco-2, pH 7.4, Recovery A-B in presence of Verapamil, replicate 1, with verapamil
property_label: recovery at 90 min, 10 µM (%)

smiles_entry=Cc1c(C(=O)Nc2ccc(N3C[C@@H](C)O[C@@H](C)C3)nc2)cccc1-c1ccc(OC(F)(F)F)cc1 quantitative_result=67

====

procedure_text: Metabolic stability in human liver microsomes
Assay type: in vitro ADME
study_conditions: both sexes, human, liver microsomes, pH 7.4; Table S7, 2nd batch; read-out: Clint
property_label: microsomal CLint at 2 μM (µL/min/mg)

smiles_entry=O=C(O)Cc1ccccc1Nc1c(Cl)cccc1Cl quantitative_result=223

====

procedure_text: in vitro
study_conditions: human, Caco-2, pH 7.4, Recovery B-A, replicate 1, no verapamil
property_label: recovery at 90 min, 10 µM

molecule="Cc1c(C(=O)Nc2ccc(N3C[C@@H](C)O[C@@H](C)C3)nc2)cccc1-c1ccc(OC(F)(F)F)cc1 [Sonidegib]" property_label="recovery at 90 min, 10 µM" result=46%

====

procedure_text: Kinetic solubility in phosphate-buffered saline, pH 7.4
Format: physicochemical
study_conditions: 25 °C, pH 7.4, aqueous buffer, kinetic from dmso stock, PBS solubility, pH 7.4, Mean
property_label: solubility at 2 h (µM)

molecule="CC1CN(c2ccc(NC(=O)C34CCCC(c5ccc(OC(F)(F)F)cc5)(C3)C4)cn2)CC(C)O1 (stereo not shown) [Compound 50]" property_label="solubility at 2 h" quantitative_result=4
molecule="Cc1nccn1CC1CCc2c(c3ccccc3n2C)C1=O (stereo not shown) [Ondansetron]" property_label="solubility at 2 h" quantitative_result=124
molecule="Cc1c(C(=O)Nc2ccc(N3C[C@@H](C)O[C@@H](C)C3)nc2)cccc1-c1ccc(OC(F)(F)F)cc1 [Sonidegib]" property_label="solubility at 2 h" quantitative_result=6
molecule="CC1CN(c2ccc(NC(=O)C34COCC(c5ccc(OC(F)(F)F)cc5)(C3)C4)cn2)CC(C)O1 (stereo not shown) [Compound 51]" property_label="solubility at 2 h" quantitative_result=34
